Reported melting point values for the following compounds.
TEST_READOUT: melting point

>>> result("O=C(O)c1ccc(O)c(OCc2ccccc2)c1")
"167 to 171 °C"
>>> result("CCCC(=O)NCc1cccc2c1CN(C1CCC(=O)NC1=O)C2=O (stereo not given)")
"244 to 246 °C"
>>> result("COc1ccccc1C(=O)Nc1ccc(COc2ccc3c(c2)CCC(CN(C)C)C3)cc1 (stereo not given)")
"106 to 108 °C"
>>> result("CNCC(=O)N(C)Cc1ccc(CCn2cnc3cc(-c4ccc(Cl)cc4)sc3c2=O)cc1")
"166 to 169 °C"
>>> result("CC(=O)OCCC1CCC2C3CCC4CCCCC4(C)C3CCC12C (stereo not given)")
"123 to 125 °C"
>>> result("O=c1[nH]c(=O)c2cc(N3CCCCC3)ccc2[nH]1")
"> 280 °C"
>>> result("Cc1cc(C)c(-c2cc3cnc(N)nc3nc2N)c(C)c1")
"276 to 282 °C"
>>> result("Cc1nc(-n2cnn(CC3CC3)c2=O)sc1C(=O)NCc1cccnc1")
"116 to 117 °C"
>>> result("NS(=O)(=O)c1cccc(-c2cc(-c3nc(-c4cccc(C(F)(F)F)c4)cc(C(F)(F)F)n3)ccn2)c1")
"244 °C"
>>> result("Cc1cc(C)c(Nc2nc(C)ccc2S(=O)(=O)c2cccc(O)c2)c(C)c1")
"196 to 197 °C"
>>> result("CCN1c2ccc(C)cc2C2CN(CCCC(=O)c3ccc(F)cc3)CCC21 (stereo not given)")
"150 to 153 °C"
>>> result("OCCCCCCCCCCCC(F)(F)C(F)(F)F")
"41 to 43 °C"
>>> result("Cc1nc2c(O)cccc2c(Cl)c1C")
"120 °C"
>>> result("O=C(NC(=O)c1c(F)cccc1F)Nc1cc(Br)c(Br)cc1C(F)(F)F")
"203 °C"
>>> result("CN1CCN(Cc2c(-c3ccc4sc(=O)n(C)c4c3)nc3ccccn23)CC1")
"191 to 193 °C"
>>> result("CC(=O)NC1Cc2ccc(NC(=O)c3ccccc3-c3ccc(F)cc3)cc2C1 (stereo not given)")
"218 to 220 °C"
>>> result("COc1ccc(C=CC(=O)Nc2ccccc2C(=O)O)cc1O")
"215 to 216 °C"
>>> result("CCOc1cc(C2(C)CNC(=O)O2)ccc1OC (stereo not given)")
"85 °C"
>>> result("CCc1cc(OCc2ccc(-c3ccccc3-c3nnnn3-c3ccc(C#N)cc3)cc2)c2ccccc2n1")
"165 to 166 °C"
>>> result("Nc1cc(F)ccc1NC(c1ccccc1)c1ccccc1")
"120 °C"

====

Reported melting point values for the following compounds.
TEST_READOUT: melting point

>>> result("COc1cc(CC(C)(C)NC(=O)c2ccc(Cl)nc2)cc2c1OC(C)(C)C2")
"118 to 119 °C"
>>> result("C=Cc1cc(Br)c(O)c(Br)c1")
"75 °C"
>>> result("CCc1cc(=O)c2cc(C(C)C(=O)O)ccc2o1 (stereo not given)")
"128 °C"
>>> result("N=C(NO)c1ccc(-c2ccc(-c3nc4cc(C(=N)NO)ccc4[nH]3)cc2)nc1")
"305 to 308 °C"
>>> result("COCCNC(=O)c1ccc(SC)c([N+](=O)[O-])c1")
"117 to 118 °C"
>>> result("N#Cc1ccc(CN2CC=C(c3nc4ccccc4s3)CC2)cc1")
"165 to 166 °C"
>>> result("Nc1nc(N)c2cc(Oc3ccc(Cl)cc3)ccc2n1")
"226 to 228 °C"
>>> result("O=C(c1ccccc1)c1cc(O)c(O)c([N+](=O)[O-])c1")
"132 °C"
>>> result("Cn1cc2c(C#CCO)cccc2n1")
"139 to 140 °C"
>>> result("COCC(CCO)(OC)c1cccc(OCc2ccc3ccccc3c2)c1 (stereo not given)")
"64 to 65 °C"
>>> result("Cc1cc(=O)c(Oc2ccc(F)cc2F)c(-c2ccc(S(C)(=O)=O)cc2)o1")
"191 °C"
>>> result("O=c1ccn(-c2cccc(C(F)(F)F)c2)nc1-c1ccnn1-c1ccc(F)cc1")
"130 to 131 °C"
>>> result("Oc1cccc(-c2n[nH]c3c2Cc2ccccc2-3)c1")
"302 to 304 °C"
>>> result("O=C(NC1c2sc([N+](=O)[O-])cc2OCC1O)c1ccc(C(F)(F)F)cc1 (stereo not given)")
"219 to 220 °C"
>>> result("COc1ccc(CN(C)CCc2ccc(NC(=O)c3cccc4c(=O)c5cccc(F)c5[nH]c34)cc2)cc1OC")
"175 °C"
>>> result("O=C(NCCO)c1cccc(-c2cccc3c2CC(Cc2cccc(C(F)(F)F)c2)O3)c1 (stereo not given)")
"120 to 121 °C"
>>> result("COC(=O)CC(C)N=c1sc2ccccc2s1 (stereo not given)")
"78 to 80 °C"
>>> result("O=S(=O)(c1ccc(Cl)cc1)C(c1ccncc1)c1cc(F)ccc1F (stereo not given)")
"126 to 127 °C"
>>> result("CC1=C(C(=O)OC(C)(C)C)C(c2cccc(Br)c2)C(C(=O)OC(C)(C)C)=C(C)N1")
"195 to 196 °C"
>>> result("COc1ccc(C2=NN(C3CCN(c4ncnc5sccc45)CC3)C(=O)[C@@H]3CC=CC[C@H]23)cc1OC")
"219 to 220 °C"
>>> result("COc1cc(N)c([N+](=O)[O-])cc1O")
"171 °C"
>>> result("C1=CCC2=C3C(=NC2=C1)SCCC3CNCc1ccccc1 (stereo not given)")
"118 °C"
>>> result("CCOC(=O)Nn1c(C)ccc1C(=O)c1ccccc1Cl")
"82 to 84 °C"
>>> result("CC1SCCCNc2ccccc21 (stereo not given)")
"72 to 74 °C"
>>> result("COc1cccc2c1cc(SCCC(=O)O)n2C")
"126 to 128 °C"

Just for reference, a melting point compilation (Tetko et al.; mined from patent text by program, amines drawn as free bases though some values may be those of a salt) is where these values come from.
